Source listed as PubChem BioAssay (NCI).

- System: SK-MEL-5 melanoma
- Experiment description: NCI tumour cell line growth inhibition, 48 h
Assay metric: TGI

Problem: Kindly indicate its recorded TGI. Item: CN(C)c1ccc(/C=C/c2ccnc3ccccc23)cc1N
Solution: 11.5 µM

Problem: Kindly indicate its recorded TGI. Item: COc1ccccc1-c1nc2ccccc2c(=O)[nH]1
Solution: > 100 µM

Problem: Kindly indicate its recorded TGI. Item: CC(=O)OC1(C#N)CC2OC1C1C2N1C(=O)OC(C)(C)C (stereo not drawn)
Solution: > 100 µM

Problem: Kindly indicate its recorded TGI. Item: CCOC(=O)/C=C(\C(=O)OCC)n1cnc2c(N)ncnc21
Solution: 28.6 µM

Problem: Kindly indicate its recorded TGI. Item: NC(CCCNc1cccc(O)c1)C(=O)O (stereo not drawn)
Solution: > 100 µM

Problem: Kindly indicate its recorded TGI. Item: Fc1ccc(NCn2nc(COc3ccccc3Cl)n(/N=C/c3ccc(-c4ccc(Cl)cc4Cl)o3)c2=S)cc1Cl
Solution: 29.9 µM

Problem: Kindly indicate its recorded TGI. Item: Cc1ccc(S(=O)C[C@@]2(C(F)F)NC(=O)NC2=O)cc1 (stereo partly drawn)
Solution: > 100 µM

Problem: Kindly indicate its recorded TGI. Item: CCOC(=O)NC(NNc1ccc([N+](=O)[O-])cc1[N+](=O)[O-])(C(F)(F)F)C(F)(F)F
Solution: > 100 µM

Problem: Kindly indicate its recorded TGI. Item: CC1CC(=O)C(CC(=O)O)C1C(C(=O)C(=O)Nc1c(C#N)cccc1[N+](=O)[O-])[N+](=O)[O-] (stereo not drawn)
Solution: > 100 µM

Problem: Kindly indicate its recorded TGI. Item: CC(=O)N1CC[N+](C)(CCCCN2c3ccccc3Sc3cc(N=[N+]=[N-])ccc32)CC1
Solution: > 100 µM

Problem: Kindly indicate its recorded TGI. Item: CO/N=C(\COc1ccc2c(c1)oc(=O)c1cc(OC)ccc12)c1cccc(OC)c1
Solution: > 100 µM

Problem: Kindly indicate its recorded TGI. Item: c1ccc2c(Nc3ccc(Oc4ccc(Nc5c6ccccc6nc6ccccc56)cc4)cc3)c3ccccc3nc2c1
Solution: 3.4 µM

Problem: Kindly indicate its recorded TGI. Item: O=C(N/N=c1/ccoc2cccnc12)N1CCN(c2ncccn2)CC1
Solution: 2.97 µM

Problem: Kindly indicate its recorded TGI. Item: CCCCCCCCCCCCCCCCOC(=O)c1c(C)[nH]c(/C=C2\N=C(c3ccc[nH]3)C=C2OC)c1C
Solution: 0.703 µM

Problem: Kindly indicate its recorded TGI. Item: COc1cc(CNC(=O)[C@H](Cc2ccc(O)cn2)NC(C)=O)cc(OC)c1
Solution: > 100 µM

Problem: Kindly indicate its recorded TGI. Item: CCC[CH2][Sn]1([CH2]CCC)[O]C(=O)c2cccc(OC)c2[O]1
Solution: 2.11 µM

Problem: Kindly indicate its recorded TGI. Item: O=C1Nc2ccccc2/C1=C/c1ccccc1
Solution: 26.1 µM

Problem: Kindly indicate its recorded TGI. Item: Cc1ccc(NC(=O)COC(=O)c2cccc3c(=O)c4ccccc4[nH]c23)cc1
Solution: > 100 µM

Problem: Kindly indicate its recorded TGI. Item: CC(=O)O[C@H]1CC[C@H]2[C@@H]3CCC4=C(C(=O)C=CC4(C)OC(C)=O)[C@H]3CC[C@]12C (stereo partly drawn)
Solution: > 100 µM

Problem: Kindly indicate its recorded TGI. Item: C=C(C)[C@@H]1CC[C@]2(C(=O)O)CC[C@]3(C)[C@H](CC[C@@H]4[C@@]5(C)C[C@@H](CC#Cc6ccc(Br)cc6)C(=O)C(C)(C)[C@@H]5CC[C@]43C)[C@@H]12
Solution: > 100 µM

Problem: Kindly indicate its recorded TGI. Item: Cc1[nH]n(-c2ccc(S(=O)(=O)O)cc2)c(=O)c1N=Nc1ccccc1
Solution: > 100 µM

Problem: Kindly indicate its recorded TGI. Item: O=C1c2ccccc2C(=O)c2c1oc(=O)c1ccccc21
Solution: 4.51 µM

Problem: Kindly indicate its recorded TGI. Item: Cc1cc(O)ccc1O
Solution: > 100 µM

Problem: Kindly indicate its recorded TGI. Item: O=C1NC(N/N=C/c2ccccc2)=N/C1=C\c1cccs1
Solution: 20.7 µM

Problem: Kindly indicate its recorded TGI. Item: CNC(=O)c1n[nH]n(Cc2ccccc2)c1=S
Solution: > 100 µM

Problem: Kindly indicate its recorded TGI. Item: COC(=O)c1cc2c3ccccc3n3c(=O)c4cc5cc(OC)c(N(S(=O)(=O)c6ccc(C)cc6)S(=O)(=O)c6ccc(C)cc6)cc5nc4c(n1)c23
Solution: > 100 µM

Problem: Kindly indicate its recorded TGI. Item: O=C1CCCC(=O)C1=C(O)CCCCCCCCCCc1ccccc1
Solution: 49.5 µM

Problem: Kindly indicate its recorded TGI. Item: O=C1Cc2ccccc2N1c1c(Cl)cccc1Cl
Solution: > 100 µM

Problem: Kindly indicate its recorded TGI. Item: C[N+](C)(C)C1(C(=O)[O-])CC1
Solution: > 100 µM

Problem: Kindly indicate its recorded TGI. Item: CC1(C)N=C(N)N=C(N)N1c1ccc(OCC(=O)N2CCOCC2)c(Cl)c1
Solution: > 100 µM

Problem: Kindly indicate its recorded TGI. Item: Oc1ccc2c3c1OC1C(=NN=C4CCC5(O)C6Cc7ccc(O)c8c7C5(CCN6CC5CC5)C4O8)CCC4(O)C(C2)N(CC2CC2)CCC314 (stereo not drawn)
Solution: 34.8 µM

Problem: Kindly indicate its recorded TGI. Item: Cc1ccc(NSc2ccccc2[N+](=O)[O-])cc1
Solution: 13.6 µM

Problem: Kindly indicate its recorded TGI. Item: Cc1nc(N)sc1N=Nc1cc(Cl)c([N+](=O)[O-])cc1Cl
Solution: 19.4 µM

Problem: Kindly indicate its recorded TGI. Item: CC(=O)NC(CCCCNC(=O)OC(C)(C)C)C(=O)O (stereo not drawn)
Solution: > 100 µM

Problem: Kindly indicate its recorded TGI. Item: O=c1[nH]ccc2nc(-c3ccc(CN4CCC(c5nc(-c6ccccn6)n[nH]5)CC4)cc3)c(-c3ccccc3)cc12
Solution: 24 µM

Problem: Kindly indicate its recorded TGI. Item: Cc1cc(Cl)ccc1NC(=O)CC1SC(N)=NC1=O (stereo not drawn)
Solution: > 100 µM

Problem: Kindly indicate its recorded TGI. Item: N#Cc1c(NC(=O)c2cccc3ccccc23)sc2c1CCCC2
Solution: 1.62 µM

Problem: Kindly indicate its recorded TGI. Item: COc1ccc(CC2NCCc3cc(OC)c(OC)cc32)cc1 (stereo not drawn)
Solution: > 100 µM

Problem: Kindly indicate its recorded TGI. Item: CC(C)c1ccc2c(c1)C=C1OC(=O)[C@]3(C)CCC[C@@]2(C)C13 (stereo partly drawn)
Solution: > 100 µM

Problem: Kindly indicate its recorded TGI. Item: C=CCC12CC(=O)C=C1CCC1(C2)OCCO1 (stereo not drawn)
Solution: > 100 µM

Problem: Kindly indicate its recorded TGI. Item: COc1cc(C=Nc2ccc(S(N)(=O)=O)cc2)cc(OC)c1
Solution: > 50 µM

Problem: Kindly indicate its recorded TGI. Item: Cn1ccnc1C(=O)/C=C/c1ccc(C(=O)Nc2ccccc2O)cc1
Solution: 11.1 µM

Problem: Kindly indicate its recorded TGI. Item: CCOC(=O)C1(C(=O)OCC)CSC1
Solution: > 100 µM

====

- Tested on: T-47D breast
- Experiment description: NCI tumour cell line growth inhibition, 48 h
Assay metric: TGI

Problem: Kindly indicate its recorded TGI. Item: CC(=O)NC(CCCCNC(=O)OC(C)(C)C)C(=O)O (configuration not stated)
Solution: > 100 µM

Problem: Kindly indicate its recorded TGI. Item: CC(=O)O[C@H]1[C@@H](OC2CCCC2(c2ccccc2)c2ccccc2)O[N+]([O-])=C[C@@]12COCc1cc3c(cc12)OCO3 (some centres not stated)
Solution: > 31.2 µM

Problem: Kindly indicate its recorded TGI. Item: CC(C)=CCc1ccc(O)c(=O)cc1C(C)C
Solution: > 100 µM

Problem: Kindly indicate its recorded TGI. Item: COP(=O)(OC)C(O)/C=C/c1ccco1 (configuration not stated)
Solution: > 100 µM

Problem: Kindly indicate its recorded TGI. Item: O=C1/C(=C/c2ccc([N+](=O)[O-])o2)Oc2ccccc21
Solution: 4.34 µM

Problem: Kindly indicate its recorded TGI. Item: CN(C)CS/C(N)=N\C(O)C(Cl)(Cl)Cl (configuration not stated)
Solution: > 100 µM

Problem: Kindly indicate its recorded TGI. Item: Cc1nc(N)c(N2CCN(Cc3ccccc3)CC2)c(=O)[nH]1
Solution: > 100 µM

Problem: Kindly indicate its recorded TGI. Item: O=Cc1[nH]c(=O)[nH]c(=O)c1CCl
Solution: > 100 µM

Problem: Kindly indicate its recorded TGI. Item: O=C(NCC(=O)N1CC[C@H](NC2CCC(O)(c3ccc(-c4ncccn4)cn3)CC2)C1)c1cccc(C(F)(F)F)c1 (some centres not stated)
Solution: > 100 µM

Problem: Kindly indicate its recorded TGI. Item: N#CCC12CC=CCC1=C(O)C(=O)c1ccc(O)cc12 (configuration not stated)
Solution: > 100 µM

Problem: Kindly indicate its recorded TGI. Item: Cc1nn(-c2ccccc2)c2c1C(c1cc3ccccc3nc1Cl)NC(=S)N2 (configuration not stated)
Solution: > 100 µM

Problem: Kindly indicate its recorded TGI. Item: C[N+](C)(C)C1(C(=O)[O-])CC1
Solution: > 100 µM

Problem: Kindly indicate its recorded TGI. Item: Cc1ccc(S(=O)C[C@@]2(C(F)F)NC(=O)NC2=O)cc1 (some centres not stated)
Solution: > 100 µM

Problem: Kindly indicate its recorded TGI. Item: COc1ccc2c(c1)C(=O)/C(=C/c1ccc([N+](=O)[O-])s1)O2
Solution: 0.728 µM

Problem: Kindly indicate its recorded TGI. Item: COc1ccc(/C(=N\O)c2cc(OC)c(OC)c(OC)c2)c(OC)c1N
Solution: > 100 µM

Problem: Kindly indicate its recorded TGI. Item: Cc1cc(C)nc(NS(=O)(=O)c2ccc(NNC(=O)c3cccc4c(NNc5ccc(S(=O)(=O)Nc6nc(C)cc(C)n6)cc5)c5ccccc5nc34)cc2)n1
Solution: 78.9 µM

Problem: Kindly indicate its recorded TGI. Item: O=C1C=CC[C@H](/C=C/C[C@@H](O)C[C@H](O)/C=C/c2ccccc2)O1
Solution: 33.3 µM

Problem: Kindly indicate its recorded TGI. Item: CC(C)=CC(O)C/C(C)=C/CC/C(C)=C/CCC1(C)C(CCCO)/C(=C(/C)C=O)CCC1(C)O (configuration not stated)
Solution: > 100 µM

Problem: Kindly indicate its recorded TGI. Item: CCCCCCCCCCCCSC(=NC)NC
Solution: 4.77 µM

Problem: Kindly indicate its recorded TGI. Item: CC(=O)OCC1OC(n2c3c(cc(C#N)c2=S)CCCCCC3)C(OC(C)=O)C(OC(C)=O)C1OC(C)=O (configuration not stated)
Solution: 30.4 µM

Problem: Kindly indicate its recorded TGI. Item: O=C(O)c1cncc(C(=O)O)c1
Solution: > 100 µM

Problem: Kindly indicate its recorded TGI. Item: O=C(Nc1cccnc1)c1cccc([N+](=O)[O-])c1
Solution: > 100 µM
